# System: P. aeruginosa PA9704, PmxR
Bridge positions count the residues as written; N and C are the ends. Square brackets hold non-standard residues; d marks the D form. Peptide text beside a SMILES is read from it. * marks the point of attachment. hSer = N[C@@H](CCO)C(=O)O; Octanoyl = CCCCCCCC(=O)*; Dab = NCC[C@H](N)C(=O)O
Reported values of MIC for individual entries
MEASUREMENT_NAME: MIC

[
  {
    "COMPOUND": "CCCCCCCC(=O)N[C@@H](CCN)C(=O)N[C@H](C(=O)N[C@@H](CCN)C(=O)N[C@H]1CCNC(=O)[C@H]([C@@H](C)O)NC(=O)[C@H](CCN)NC(=O)[C@H](CCN)NC(=O)[C@H](CC(C)C)NC(=O)[C@@H](Cc2ccccc2)NC(=O)[C@H](CCNC(=O)[C@@H](N)CCCNC(=N)N)NC1=O)[C@@H](C)O [Compound 31] (Octanoyl-[Dab]T[Dab][Dab][Dab](Arg)[dF]L[Dab][Dab]T; lactam 4-C)",
    "TGT": "P. aeruginosa PA9704, PmxR",
    "ENDPOINT_VALUE": "> 32 µg/mL"
  },
  {
    "COMPOUND": "CCCCCCCC(=O)N[C@@H](CCN)C(=O)N[C@H](C(=O)N[C@@H](CCN)C(=O)N[C@H]1CCNC(=O)[C@H]([C@@H](C)O)NC(=O)[C@H](CCN)NC(=O)[C@H](CCN)NC(=O)[C@H](CC(C)C)NC(=O)[C@@H](Cc2ccccc2)NC(=O)[C@H](CCO)NC1=O)[C@@H](C)O [Compound 33] (Octanoyl-[Dab]T[Dab][Dab][hSer][dF]L[Dab][Dab]T; lactam 4-C)",
    "TGT": "P. aeruginosa PA9704, PmxR",
    "ENDPOINT_VALUE": "> 32 µg/mL"
  },
  {
    "COMPOUND": "CCCCCCCC(=O)N[C@@H](CCN)C(=O)N[C@H](C(=O)N[C@@H](CCN)C(=O)N[C@H]1CCNC(=O)[C@H]([C@@H](C)O)NC(=O)[C@H](CCN)NC(=O)[C@H](CCN)NC(=O)[C@H](CC(C)C)NC(=O)[C@@H](Cc2ccccc2)NC(=O)[C@H](CCNC(=O)[C@@H](N)CCC(=O)O)NC1=O)[C@@H](C)O [Compound 32] (Octanoyl-[Dab]T[Dab][Dab][Dab](Glu)[dF]L[Dab][Dab]T; lactam 4-C)",
    "TGT": "P. aeruginosa PA9704, PmxR",
    "ENDPOINT_VALUE": "> 32 µg/mL"
  }
]

###

# System: K. pneumoniae CI Koprana 100650661:1, PmxR
# CONDITIONS_USED: MIC K. pneumoniae CI Koprana 100650661:1, PmxR (µg/mL)
Bridge positions count the residues as written; N and C are the ends. Square brackets hold non-standard residues; d marks the D form. Peptide text beside a SMILES is read from it. * marks the point of attachment. Octanoyl = CCCCCCCC(=O)*; Dab = NCC[C@H](N)C(=O)O

[
  {
    "COMPOUND": "CCCCCCCC(=O)N[C@H](C(=O)N[C@@H](CCN)C(=O)N[C@H]1CCNC(=O)[C@H]([C@@H](C)O)NC(=O)[C@H](CCN)NC(=O)[C@H](CCN)NC(=O)[C@H](CC(C)C)NC(=O)[C@@H](Cc2ccccc2)NC(=O)[C@H](CCN)NC1=O)[C@@H](C)O [Compound 12] (Octanoyl-T[Dab][Dab][Dab][dF]L[Dab][Dab]T; lactam 3-C)",
    "MIC": "> 32 µg/mL"
  },
  {
    "COMPOUND": "CCCCCCCC(=O)N[C@@H](CCN)C(=O)N[C@H](C(=O)N[C@@H](CCN)C(=O)N[C@H]1CCNC(=O)[C@H]([C@@H](C)O)NC(=O)[C@H](CCCNC(=N)N)NC(=O)[C@H](CCN)NC(=O)[C@H](CC(C)C)NC(=O)[C@@H](Cc2ccccc2)NC(=O)[C@H](CCN)NC1=O)[C@@H](C)O [Compound 21] (Octanoyl-[Dab]T[Dab][Dab][Dab][dF]L[Dab]RT; lactam 4-C)",
    "MIC": "> 32 µg/mL"
  },
  {
    "COMPOUND": "CCCCCCCC(=O)N[C@@H](CCN)C(=O)N[C@H](C(=O)N[C@@H](CCN)C(=O)N[C@H]1CCNC(=O)[C@H]([C@@H](C)O)NC(=O)[C@H](CCN)NC(=O)[C@H](CCN)NC(=O)[C@H](CC(C)C)NC(=O)[C@@H](Cc2ccccc2)NC(=O)[C@H](CCNC(=O)[C@@H](N)CCC(=O)O)NC1=O)[C@@H](C)O [Compound 32] (Octanoyl-[Dab]T[Dab][Dab][Dab](Glu)[dF]L[Dab][Dab]T; lactam 4-C)",
    "MIC": "> 32 µg/mL"
  }
]

The reported measurements were obtained from paper PMC4774972.
